Test system: PC9
Measurement Protocol: cell count fold change with erlotinib, miRNA mimic vs non-targeting control (log2 ratio); higher = more drug-tolerant survivors than NTC
Condition Parameters: erlotinib 1 µM; 72 h drug + 72 h drug-free recovery; perturbation: miRNA mimic

[
  {
    "Sequence": "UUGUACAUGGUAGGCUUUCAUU",
    "Target Or System": "PC9",
    "cell count fold change with erlotinib": -3.02
  },
  {
    "Sequence": "CUAGUGAGGGACAGAACCAGGAUUC",
    "Target Or System": "PC9",
    "cell count fold change with erlotinib": -2.96
  },
  {
    "Sequence": "AGUGAAUGAUGGGUUCUGACC",
    "Target Or System": "PC9",
    "cell count fold change with erlotinib": -3.04
  }
]
